Provide the recorded growth for the entries that follow.
tested on: ACHN renal; assay: NCI-60 one-dose screen, 48 h (100 = growth as untreated, 0 = no growth, -100 = all killed); conditions: 10 µM unless noted
About 83,000 compounds went through this panel and 20% of them were active in at least one assay; those are over-represented in the sample as a whole. Where a SMILES comes first, the peptide text is derived from it.
Numbers only, in %.

# count of solved cases: 5
COc1ccc(N/C=C/C2=[N+](C)c3ccccc3C2(C)C)c(OC)c1
104
CCOC(=O)c1c(C)cc(=O)oc1C
104
O=c1n(CC2CO2)c(=O)n(CC2CO2)c(=O)n1CC1CO1 (stereo unspecified)
19.8
NC(Cc1ccccc1)C(=O)NC(Cc1ccccc1)C(=O)O (stereo not drawn) (H-Phe-Phe-OH; configuration not given here)
103
CC(C)C(C)(C)c1ccc(O)cc1
112

// each molecule listed below needs its growth
1. Cc1cc(-c2ccc(N=Nc3ccc4c(S(=O)(=O)O)cc(S(=O)(=O)O)c(N)c4c3O)c(C)c2)ccc1N=Nc1ccc2c(S(=O)(=O)O)cc(S(=O)(=O)O)c(N)c2c1O
2. CCCCNc1ccc(Nc2ccccc2)cc1
3. CC(C)(O)C(=O)O

[A]
1: 91.6; 2: 77.6; 3: 104

----------
System: SW-620 colon
Test: NCI-60 one-dose screen, 48 h (100 = growth as untreated, 0 = no growth, -100 = all killed)
Conditions: 10 µM unless noted
Protocol: Growth inhibition of the SW-620 human tumor cell line is measured as a screen for anti-cancer activity. Cells are grown in 96 well plates and exposed to the test compound for 48 hours. Compounds are tested at a single concentration, which is 10^-5 M for most compounds. The reported endpoint is percent growth (GI% or GIPRCNT), where numbers from 0 - 100% represent growth inhibition, and numbers from -100% - 0 represent cell death. For example, a value of 40 represents 60% growth inhibition. […]
This is part of a sample that, as a whole, favours compounds with a hit. Of some 83,000 tested, about 20% had one in any assay.
ENDPOINT NAME: growth (%)
One number for each entry, in %.

Hi, could you look up growth for each item in my list?
1. O=C1OC(c2ccccc2)=N/C1=C\c1ccccc1
2. Cn1cnc([N+](=O)[O-])c1Sc1ncn[nH]1
3. Cl
4. OCC1OC(O)C(O)C(O)C1O (stereo not given)

[A]
101
106
100
96.9

----------
Would you kindly list growth for each of these compounds?
system: DU-145 prostate; assay: NCI-60 one-dose screen, 48 h (100 = growth as untreated, 0 = no growth, -100 = all killed); details: 10 µM unless noted
Compounds without any hit were thinned out: in the full panel of roughly 83,000, 20% have a hit.
One number for each entry, in %.

Please state, for each entry, its recorded growth.
1. CC1CCC(C(C)C)C(NNC(N)=O)C1 (stereo unspecified)
2. O=C(O)CCCl
3. CC(=O)NCC(=O)c1ccc([N+](=O)[O-])cc1
4. C/C(=C\c1ccccc1)c1ccccn1
5. O=[N+]([O-])c1cccc(SSc2cccc([N+](=O)[O-])c2)c1
6. COc1ccc2cc1Oc1ccc(cc1)C[C@H]1c3cc(c(OC)cc3CCN1C)Oc1c(OC)c(OC)cc3c1[C@H](C2)N(C)CC3

[A]
1: 106; 2: 114; 3: 109; 4: 112; 5: 112; 6: 53.1

----------
system: COLO 205 colon; assay: NCI-60 one-dose screen, 48 h; conditions: 10 µM unless noted
This is part of a sample that, as a whole, favours compounds with a hit. Of some 83,000 tested, about 20% had one in any assay. Activity calls are given as the source filed them. How the source made its calls: active means growth percent below 10; inactive means the rest.
// one of active, inactive, no free text

Example cases with answers are listed next.
O=C(O)CCCl
inactive
ClCCOCCOc1ccc(C2CCCCC2)cc1
inactive

[Q] In this assay, the call recorded for CC1=C/C(O)CC(=O)Cc2nc(co2)C(=O)N2CCC=C2C(=O)OC(C(C)C)C(C)/C=C\C(=O)NC/C=C\1 (centres undefined) was what?
[A] inactive

[Q] Would you mind telling me which call this test gave Fc1ccc([I+]c2ccc(F)cc2)cc1 ?
[A] inactive

[Q] Per the records of this test, what outcome belongs to Nc1ncnc2c1ncn2C1OC(COP(=O)(O)O)C(O)C1O (centres undefined) ?
[A] inactive

----------
Test system: NCI-H460 lung
Assay: NCI-60 one-dose screen, 48 h (100 = growth as untreated, 0 = no growth, -100 = all killed)
Conditions: 10 µM unless noted
Method: Growth inhibition of the NCI-H460 human Non-Small Cell Lung tumor cell line is measured as a screen for anti-cancer activity. Cells are grown in 96 well plates and exposed to the test compound for 48 hours. Compounds are tested at a single concentration, which is 10^-5 M for most compounds. The reported endpoint is percent growth (GI% or GIPRCNT), where numbers from 0 - 100% represent growth inhibition, and numbers from -100% - 0 represent cell death. […]
The panel holds about 83,000 compounds, 20% with a hit somewhere; the sample as a whole holds those more often.
Assign growth to each entry below.
Answers are plain numbers, in %.

c1ccc2c(c1)OC1OC2Oc2ccccc21
99.4

# map each compound to its growth
1. O=CN1CCCCC1
2. CCCCOC(=O)/C=C\C(=O)NC(N)=O

[A]
1: 112; 2: 101

Give growth for each listed item.
1. N#CC(C#N)N=Nc1ccc(Cl)cc1
2. CCOC(=O)c1c(C)cc(=O)oc1C
3. Cl
4. OCCN1CCCCCCC1

[A]
1. 91
2. 110
3. 107
4. 106

----------
system: HOP-62 NSCLC; assay: NCI-60 one-dose screen, 48 h (100 = growth as untreated, 0 = no growth, -100 = all killed); conditions: 10 µM unless noted
This is part of a sample that, as a whole, favours compounds with a hit. Of some 83,000 tested, about 20% had one in any assay.
ENDPOINT NAME: growth (%)
Answers are plain numbers, in %.

# count of solved cases: 4
c1ccc(CNCCNCc2ccccc2)cc1
98.8
COc1ccc(N/C=C/C2=[N+](C)c3ccccc3C2(C)C)c(OC)c1
92.7
C#CCOC(=O)Nc1ccccc1
113
Nc1ncnc2c1ncn2C1OC(COP(=O)(O)O)C(O)C1O (configuration not stated)
115

The following compounds each have a reported value; give each one's growth.
1. Cc1cc(-c2ccc(N=Nc3ccc4c(S(=O)(=O)O)cc(S(=O)(=O)O)c(N)c4c3O)c(C)c2)ccc1N=Nc1ccc2c(S(=O)(=O)O)cc(S(=O)(=O)O)c(N)c2c1O
2. O=[N+]([O-])c1cccc(SSc2cccc([N+](=O)[O-])c2)c1
3. OCC1OC(O)C(O)C(O)C1O (configuration not stated)
4. CC1CCC2(OC1)OC1CC3C4CC=C5CC(O)CCC5(C)C4CCC3(C)C1C2C (configuration not stated)
5. Cc1ccc(S(=O)(=O)c2ccccc2)cc1
6. O=C(/C=C/c1ccccc1)c1ccccc1
7. CC(C)NC(=O)N/C=C(\C#N)C(N)=O

[A]
1. 95.7
2. 89.8
3. 98.9
4. 66.6
5. 44.2
6. 94.9
7. 88.2

[Q] Recall the reported growth of CCOC(=O)c1c(C)cc(=O)oc1C when tested on HOP-62 NSCLC.
[A] 97.2

----------
Provide the reported growth of each item.
test system: NCI-H226 lung; assay: NCI-60 one-dose screen, 48 h (100 = growth as untreated, 0 = no growth, -100 = all killed); conditions: 10 µM unless noted
About 83,000 compounds went through this panel and 20% of them were active in at least one assay; those are over-represented in the sample as a whole.
Give bare numbers, in %.

CC1(C)COC(=S)N1
94.5

Take each entry in turn and give its growth.
1. C/C(=C\c1ccccc1)c1ccccn1
2. Nc1ncnc2c1ncn2C1OC(COP(=O)(O)O)C(O)C1O (configuration not stated)
3. O=CN1CCCCC1
4. O=[N+]([O-])c1cccc(SSc2cccc([N+](=O)[O-])c2)c1
5. CCCCOC(=O)/C=C\C(=O)NC(N)=O
6. CCCCCCCCCCCCCCCc1ccc(N)c(OC2OC(CO)C(O)C(O)C2O)c1 (configuration not stated)

[A]
90.9
113
105
106
96.6
96.4

Please state, for each entry, its recorded growth.
1. CCOC(=O)c1c(C)cc(=O)oc1C
2. c1ccc2c(c1)OC1OC2Oc2ccccc21

[A]
[96.8, 94.3]

----------
Would you kindly list growth for each of these compounds?
System: 786-0 renal
Test: NCI-60 one-dose screen, 48 h (100 = growth as untreated, 0 = no growth, -100 = all killed)
Conditions: 10 µM unless noted
Experimental: Cells are grown in 96 well plates and exposed to the test compound for 48 hours. Compounds are tested at a single concentration, which is 10^-5 M for most compounds. The reported endpoint is percent growth (GI% or GIPRCNT), where numbers from 0 - 100% represent growth inhibition, and numbers from -100% - 0 represent cell death. For example, a value of 40 represents 60% growth inhibition. A value of 0 means no net growth occurred over the course of the experiment. […]
The panel holds about 83,000 compounds, 20% with a hit somewhere; the sample as a whole holds those more often.
Answers are plain numbers, in %.

// worked examples, growth included
Brc1ccc(SSc2ccc(Br)cc2)cc1
59
CCc1cc(C)cc(O)c1
104
O=C(Cc1ccccc1)c1ccc(O)c(Cl)c1
26.8
O=C(/C=C/c1ccccc1)c1ccccc1
86.9

Could you tell me growth for each of these compounds? They are listed below.
1. c1ccc(-c2nc3ccccc3s2)cc1
2. Nc1nc(N)c2[nH]cnc2n1
3. CC(C)NC(=O)N/C=C(\C#N)C(N)=O
4. Cc1cc(-c2ccc(N=Nc3ccc4c(S(=O)(=O)O)cc(S(=O)(=O)O)c(N)c4c3O)c(C)c2)ccc1N=Nc1ccc2c(S(=O)(=O)O)cc(S(=O)(=O)O)c(N)c2c1O

[A]
105
91.8
99
101

Record growth per entry; entries follow.
1. Oc1ccc(Cc2ccccc2Cl)c(O)c1
2. c1ccc2c(c1)OC1OC2Oc2ccccc21
3. NC(=O)NCCCC(N)C(=O)O (stereo not drawn)
4. O=CN1CCCCC1
5. N#CC(C#N)N=Nc1ccc(Cl)cc1

[A]
[102, 100, 101, 102, 59]
